- test.method.notes: In vivo pharmacokinetics in ICR mice
- protocol.conditions: mouse, plasma, 1 mg/kg, IV, read-out: MRT(0-t)
measure.name: MRT last (h)

| smiles.str | MRT last [h] |
| --- | --- |
| Cc1cc2cc(n1)-c1cnn(C)c1OCCC[C@@H](C1CC1)CN1/C(=N/C2=O)Nc2cc(NCCCN3CCOCC3)ccc21 | 1.35 |

I = Cc1cc2cc(n1)-c1cnn(C)c1OCCC[C@@H](C1CC1)CN1/C(=N/C2=O)Nc2cc(NC3(C)COC3)ccc21
II = Cc1cc2cc(n1)-c1cnn(C)c1OCCC[C@@H](C1CC1)CN1/C(=N/C2=O)Nc2ccc(NCCN(C)C)cc21
Q: Name the one with the greater MRT last value, either I or II as given. Reply briefly: the label of your chosen item.
A: II
(II: 3.96 h, I: 1.1 h)

###

- subject.of.test: EGFR (d746-750 (d19)/T790M) (Homo sapiens (Human), UniProt P00533, DEL746-750/T790M)
- Sequence (P00533 other isoform, or with tags, fused parts or gaps T790M/del 1-668/del 746-750 limits assumed): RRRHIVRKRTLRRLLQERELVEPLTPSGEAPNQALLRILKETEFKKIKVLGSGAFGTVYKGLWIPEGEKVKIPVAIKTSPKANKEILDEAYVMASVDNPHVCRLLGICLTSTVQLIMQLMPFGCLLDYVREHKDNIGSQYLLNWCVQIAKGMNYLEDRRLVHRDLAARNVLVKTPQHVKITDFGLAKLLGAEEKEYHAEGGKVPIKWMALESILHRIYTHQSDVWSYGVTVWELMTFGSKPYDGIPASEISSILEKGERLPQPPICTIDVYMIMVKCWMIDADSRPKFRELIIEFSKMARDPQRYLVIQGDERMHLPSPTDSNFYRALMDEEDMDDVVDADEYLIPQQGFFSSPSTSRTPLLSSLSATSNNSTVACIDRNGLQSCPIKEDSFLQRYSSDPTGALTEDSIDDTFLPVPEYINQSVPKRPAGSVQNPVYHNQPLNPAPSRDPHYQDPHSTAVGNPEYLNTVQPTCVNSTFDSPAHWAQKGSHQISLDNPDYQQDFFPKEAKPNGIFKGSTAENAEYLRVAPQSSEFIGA
- test.method.notes: Inhibitory activity for EGFR (d746-750 (d19)/T790M) kinase
- protocol.conditions: ATP 5 μM
measure.name: IC50 (nM)

| molecule | IC50 (nM) |
| --- | --- |
| Cc1cc2cc(n1)-c1cnn(C3CC3)c1OCCC[C@@H](C)CN1/C(=N/C2=O)Nc2cc(NC[C@H]3COCCO3)ccc21 | 0.068 |
| Cc1cc2cc(n1)-c1cnn(C)c1OCCC[C@@H](C1CC1)CN1/C(=N/C2=O)Nc2cc(NCCCCN)ccc21 | 0.0098 |
| Cc1cc2cc(n1)-c1cnn(C)c1OCCC[C@@H](C1CC1)CN1/C(=N/C2=O)Nc2ccc(NC3CCCC3)cc21 | 0.058 |
| Cc1cc2cc(n1)-c1cnn(C)c1OCCC[C@@H](C1CC1)CN1/C(=N/C2=O)Nc2ccc(NC3CC(N(C)C)C3)cc21 (stereo partly shown) | 0.087 |
| Cc1cc2cc(n1)-c1cnn(C)c1OCCC[C@@H](C1CC1)CN1/C(=N/C2=O)Nc2cc(NCCCN)ccc21 | 0.038 |

1 = Cc1cc2cc(n1)-c1cnn(C)c1OC[C@H](C1CC1)CCCn1c(nc3cc(NC4COC4)ccc31)NC2=O
2 = Cc1cc2cc(n1)-c1cnn(C)c1OCCC[C@@H](C1CC1)CN1/C(=N/C2=O)Nc2cc(N[C@H](C)C3COC3)ccc21
Q: // compare measured IC50 between 1 and 2 ; output the lower one Give the label of your selection.
A: 2

###

- test.method.notes: In vivo pharmacokinetics in ICR mice
- protocol.conditions: mouse, plasma, PO, 10 mg/kg intragastric, read-out: Tmax
measure.name: Tmax (h)

| smiles.str | reading.unit | reading |
| --- | --- | --- |
| Cc1cc2cc(n1)-c1cnn(C)c1OCCC[C@@H](C1CC1)CN1/C(=N/C2=O)Nc2ccc(N(C)C3CCN(C)CC3)cc21 | h | 6 |

A = CCC1(Nc2ccc3c(c2)N/C2=N\C(=O)c4cc(C)nc(c4)-c4cnn(C)c4OCCC[C@@H](C4CC4)CN23)COC1
B = Cc1cc2cc(n1)-c1cnn(C)c1OCCC[C@@H](C1CC1)CN1/C(=N/C2=O)Nc2ccc(N[C@@H](C)CN(C)C)cc21
Q: From the recorded data, which exceeds the other in Tmax: A or B ? API: response body contains the label of the selected item.
A: B

###

- subject.of.test: EGFR (L858R/T790M/C797S) (Homo sapiens (Human), UniProt P00533, C797S/L858R/T790M)
- Sequence (P00533 25-1210 T790M/C797S/L858R): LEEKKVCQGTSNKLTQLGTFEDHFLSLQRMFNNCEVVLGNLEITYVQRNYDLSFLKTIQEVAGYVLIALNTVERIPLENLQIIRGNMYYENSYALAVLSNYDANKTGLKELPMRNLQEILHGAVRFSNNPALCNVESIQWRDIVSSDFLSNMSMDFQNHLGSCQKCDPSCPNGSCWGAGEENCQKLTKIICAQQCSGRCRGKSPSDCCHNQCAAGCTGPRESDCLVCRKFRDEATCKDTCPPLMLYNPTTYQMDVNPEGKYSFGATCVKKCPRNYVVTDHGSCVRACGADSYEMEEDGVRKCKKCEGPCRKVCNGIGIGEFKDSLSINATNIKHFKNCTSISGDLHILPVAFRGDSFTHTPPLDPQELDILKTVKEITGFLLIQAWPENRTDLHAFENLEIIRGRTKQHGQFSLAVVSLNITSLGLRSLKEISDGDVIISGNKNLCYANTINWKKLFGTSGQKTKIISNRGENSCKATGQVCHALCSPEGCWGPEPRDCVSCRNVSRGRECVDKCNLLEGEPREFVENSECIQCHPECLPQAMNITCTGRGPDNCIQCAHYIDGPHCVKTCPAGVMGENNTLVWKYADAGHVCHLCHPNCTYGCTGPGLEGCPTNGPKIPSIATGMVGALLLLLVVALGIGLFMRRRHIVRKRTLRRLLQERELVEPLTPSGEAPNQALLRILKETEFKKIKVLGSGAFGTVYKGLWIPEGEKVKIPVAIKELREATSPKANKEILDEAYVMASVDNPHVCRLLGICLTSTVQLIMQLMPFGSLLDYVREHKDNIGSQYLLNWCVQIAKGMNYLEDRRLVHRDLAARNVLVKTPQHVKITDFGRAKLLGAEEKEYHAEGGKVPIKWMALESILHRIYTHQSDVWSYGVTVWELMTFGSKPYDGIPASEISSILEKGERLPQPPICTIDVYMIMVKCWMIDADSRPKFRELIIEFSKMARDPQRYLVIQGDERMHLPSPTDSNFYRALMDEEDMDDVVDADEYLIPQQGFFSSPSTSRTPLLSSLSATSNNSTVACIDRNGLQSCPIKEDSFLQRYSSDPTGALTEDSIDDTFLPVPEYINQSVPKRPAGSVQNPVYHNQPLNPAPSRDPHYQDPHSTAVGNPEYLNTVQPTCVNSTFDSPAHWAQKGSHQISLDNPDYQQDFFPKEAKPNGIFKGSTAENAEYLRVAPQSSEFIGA
- test.method.notes: Inhibitory activity for EGFR (L858R/T790M/C797S) kinase
- protocol.conditions: ATP 5 μM
measure.name: IC50 (nM)

# count of solved cases: 3
| smiles.str | IC50 / nM |
| --- | --- |
| Cc1cc2cc(n1)-c1cnn(C)c1OC[C@H](C1CC1)CCCn1c(nc3ccc(NC4COC4)cc31)NC2=O | 0.085 |
| Cc1cc2cc(n1)-c1cnn(C)c1OCCC[C@@H](C1CC1)CN1/C(=N/C2=O)Nc2cc(N[C@H]3CC[C@@H](N(C)C)CC3)ccc21 | 0.017 |
| Cc1cc2cc(n1)-c1cnn(C)c1OCCC[C@@H](C1CC1)CN1/C(=N/C2=O)Nc2cc(N[C@H](C)C3COC3)ccc21 | 0.027 |

I = C[C@H](Nc1ccc2c(c1)N/C1=N\C(=O)c3cc(F)nc(c3)-c3cnn(C)c3OCCC[C@@H](C3CC3)CN12)C(F)(F)F
II = Cc1cc2cc(n1)-c1cnn(C)c1OC[C@H](C1CC1)CCCn1c(nc3cc(NC4COC4)ccc31)NC2=O
Q: Form field 'greater IC50' accepts I or II ; which applies? Please identify the chosen entry by its label.
A: I
(I: 0.5 nM, II: 0.081 nM)

###

- test.method.notes: In vivo pharmacokinetics in ICR mice
- protocol.conditions: mouse, plasma, PO, 10 mg/kg intragastric, read-out: T½ (converted)
measure.name: half-life (h)

| smiles.str | half-life (h) |
| --- | --- |
| Cc1cc2cc(n1)-c1cnn(C)c1OCCC[C@@H](C1CC1)CN1/C(=N/C2=O)Nc2ccc(N[C@H]3C[C@H](N(C)C)C3)cc21 | 3.46 |

1 = Cc1cc2cc(n1)-c1cnn(C)c1OCCC[C@@H](C1CC1)CN1/C(=N/C2=O)Nc2ccc(N(C)C3CCN(C)CC3)cc21
2 = Cc1cc2cc(n1)-c1cnn(C)c1OCCC[C@@H](C1CC1)CN1/C(=N/C2=O)Nc2ccc(N[C@@H](C)CN(C)C)cc21
Q: Record comparison, field half-life: mark the lower of 1 and 2 . Reply with the label of the item you choose.
A: 1
(1: 4.17 h, 2: 5.98 h)

###

- test.method.notes: In vitro stability in liver microsomes
- Format: in vitro ADME
- protocol.conditions: Human liver microsome
measure.name: Stability in liver microsomes (residual %, T = 60 min) (%)

As a guide, the following entries are already answered.
| compound | reading |
| --- | --- |
| Cc1cc2cc(n1)-c1cnn(C)c1OCCC[C@@H](C1CC1)CN1/C(=N/C2=O)Nc2ccc(NC3CCN(C)CC3)cc21 [Example 20] | 73.66 |
| Cc1cc2cc(n1)-c1cnn(C)c1OCCC[C@@H](C1CC1)CN1/C(=N/C2=O)Nc2cc(NCCN3CCCC3)ccc21 [Example 72] | 64.73 |

1 = CCN1CCC(Nc2ccc3c(c2)N/C2=N\C(=O)c4cc(C)nc(c4)-c4cnn(C)c4OCCC[C@@H](C4CC4)CN23)CC1 [Example 48]
2 = Cc1cc2cc(n1)-c1cnn(C)c1OCCC[C@@H](C1CC1)CN1/C(=N/C2=O)Nc2ccc(N[C@@H]3CC[C@H](N(C)C)C3)cc21 [Example 134]
Q: Could you point out whether the larger Stability in liver microsomes (residual %, T = 60 min) belongs to 1 or to 2 ? Answer format: the label of the selected item.
A: 1

###

- subject.of.test: EGFR (d746-750 (d19)/T790M) (Homo sapiens (Human), UniProt P00533, DEL746-750/T790M)
- test.method.notes: Inhibitory activity for EGFR (d746-750 (d19)/T790M) kinase
- protocol.conditions: ATP 5 μM
measure.name: IC50 (pM)

| smiles.str | subject.of.test | reading |
| --- | --- | --- |
| Cc1cc2cc(n1)-c1cnn(C)c1OCCC[C@@H](C1CC1)CN1/C(=N/C2=O)Nc2cc(NC3(C)CNC3)ccc21 | EGFR (d746-750 (d19)/T790M) (Homo sapiens (Human), UniProt P00533, DEL746-750/T790M) | 14 |

A = Cc1cc2cc(n1)-c1cnn(C)c1OCCC[C@@H](C1CC1)CN1/C(=N/C2=O)Nc2cc(NC[C@H]3COCCO3)ccc21
B = Cc1cc2cc(n1)-c1cnn(C)c1OCCC[C@@H](C1CC1)CN1/C(=N/C2=O)Nc2cc(N(C)C3COC3)ccc21
Q: Between the entries labeled A and B , whose measured IC50 is lower? Record your answer as the label of the chosen record.
A: B

###

- subject.of.test: EGFR (d746-750 (d19)/T790M) (Homo sapiens (Human), UniProt P00533, DEL746-750/T790M)
- test.method.notes: Inhibitory activity for EGFR (d746-750 (d19)/T790M) kinase
- protocol.conditions: ATP 5 μM
- Description: 1.3 Screening for Inhibitory Activity for EGFR (d746-750 (d19)/T790M) Kinase A 50 ng/μL EGFR (d746-750/T790M, Carna) stock solution was diluted with a kinase buffer (50 mM HEPES, 10 mM MgCl2, 2 mM DTT, 1 mM EGTA, 0.01% Tween 20), and 6 μL of 1.67× working solution at 0.005 ng/μL (final concentration: 0.003 ng/μL) was added to each well. […]
measure.name: IC50 (nM)

| smiles.str | reading |
| --- | --- |
| CCN1CCC(Nc2ccc3c(c2)N2C[C@H](C4CC4)CCCOc4c(cnn4C)-c4cc(cc(C)n4)C(=O)/N=C/2N3)CC1 | 0.014 |
| Cc1cc2cc(n1)-c1cnn(C3CC3)c1OCCC[C@@H](C)CN1/C(=N/C2=O)Nc2ccc(N3CC[C@H](O)C3)cc21 | 0.06 |
| CNCCCCNc1ccc2c(c1)N/C1=N\C(=O)c3cc(C)nc(c3)-c3cnn(C)c3OCCC[C@@H](C3CC3)CN12 | 0.021 |
| Cc1cc2cc(n1)-c1cnn(C)c1OCCC[C@@H](C1CC1)CN1/C(=N/C2=O)Nc2cc(NC3CNC3)ccc21 | 0.01 |
| Cc1cc2cc(n1)-c1cnn(C)c1OCCC[C@@H](C1CC1)CN1/C(=N/C2=O)Nc2ccc(N[C@H]3CC[C@H](N(C)C)CC3)cc21 | 0.092 |
| Cc1cc2cc(n1)-c1cnn(C)c1OCCC[C@@H](C1CC1)CN1/C(=N/C2=O)Nc2cc(NCCN3CCCC3)ccc21 | 0.011 |

I = Cc1cc2cc(n1)-c1cnn(C)c1OCCC[C@@H](C1CC1)CN1/C(=N/C2=O)Nc2ccc(NC3CCN(C)CC3)cc21
II = Cc1cc2cc(n1)-c1cnn(C)c1OCCC[C@@H](C1CC1)CN1/C(=N/C2=O)Nc2ccc(N[C@H]3C[C@@H](N(C)C)C3)cc21
Q: # min-compare on IC50 between I and II // caller expects the label of the chosen entry
A: I
(I: 0.012 nM, II: 0.12 nM)
